- target_of_assay: T1, IFN-αJ1 (human, UniProt P01567 24-189)
- T1 construct: Recombinant, HEK293; also called IFN-α7
- experimental_protocol: ProteOn SPR, cell supernatant;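 further: each binding measurement used just a single antigen concentration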
readout_label: pKd
Value format note: pKd is -log10 of concentration (mol/L); just state the number.

Below are worked cases with known answers.
IFWM3393 (antibody, IgG1, V domains shown, mAb; IgG1/kappa said of the parent and of selected mAbs; also called IFWB3128) VH: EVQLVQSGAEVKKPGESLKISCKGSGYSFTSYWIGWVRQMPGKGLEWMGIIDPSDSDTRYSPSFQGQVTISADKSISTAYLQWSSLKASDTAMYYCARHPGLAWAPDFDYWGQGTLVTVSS VL: DIQMTQSPSSLSASVGDRVTITCRASQSITSSLNWYQQKPGKAPKLLIYFASSLQSGVPSRFSGSGSGTDFTLTISSLQPEDFATYYCQQSFDLPLTFGQGTKVEIK ... 10.02
IFWM3411 (antibody, IgG1, V domains shown, mAb; IgG1/kappa said of the parent and of selected mAbs; also called IFWB3146) VH: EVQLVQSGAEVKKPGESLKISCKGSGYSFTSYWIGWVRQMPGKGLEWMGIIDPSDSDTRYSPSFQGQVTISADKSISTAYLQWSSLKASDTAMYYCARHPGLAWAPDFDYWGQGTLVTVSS VL: DIQMTQSPSSLSASVGDRVTITCRASQSIDNNNLNWYQQKPGKAPKLLIYAASSLQSGVPSRFSGSGSGTDFTLTISSLQPEDFATYYCQQGYDWPLTFGQGTKVEIK ... 9.82

Kindly review the next binder as well.
Problem: What measured pKd goes with IFWM3417 (antibody, IgG1, V domains shown, mAb; IgG1/kappa said of the parent and of selected mAbs; also called IFWB3152) VH: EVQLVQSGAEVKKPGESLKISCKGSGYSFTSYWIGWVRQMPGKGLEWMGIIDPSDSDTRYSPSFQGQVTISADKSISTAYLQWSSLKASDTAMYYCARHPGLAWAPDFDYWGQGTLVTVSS VL: DIQMTQSPSSLSASVGDRVTITCRASQSIANNDLNWYQQKPGKAPKLLIHWASSLQSGVPSRFSGSGSGTDFTLTISSLQPEDFATYYCQQDYDWPLTFGQGTKVEIK ?
Solution: 10.15
